Test system: HOP-62 NSCLC
TEST_NAME: NCI tumour cell line growth inhibition, 48 h
Please go through the items and note down their GI50.

**Query** Tell me GI50 reported for Cc1nc2sc(C(=O)Nc3cccc(Cl)c3C)c(N)c2cc1C(C)O (stereo not given)
**Result** 0.53 µM

**Query** Determine its reported GI50: O=c1oc2cc(OS(=O)(=O)c3ccccc3)ccc2c2c1CCCCC2
**Result** > 100 µM

**Query** Entry O=C(O)c1cc2c(c3ccsc13)-c1ccccc1CC2 needs its GI50 filled in; supply it.
**Result** 31.8 µM

**Query** Using known records, supply GI50 for COc1ccc(S(=O)(=O)n2c3ccccc3n3ncc(-c4nnc(C)o4)c23)cc1
**Result** 0.566 µM

**Query** For the molecule COc1cc(/C=C\c2cc(OC)c(OC)c(OC)c2)cc(NS(=O)(=O)c2cccc(Cl)c2)c1OC , give its measured GI50 value.
**Result** 3.16 µM

**Query** Using known records, supply GI50 for CC(=O)NS(=O)(=O)c1ccc(-n2nc(-c3ccccc3)cc2C2=CC(=O)C=CC2=O)cc1
**Result** > 100 µM

**Query** Using the record for Cc1ccc(/C=C2\CN(Cc3cn(CCNc4ccnc5cc(Cl)ccc45)nn3)C/C(=C\c3ccc(C)cc3)C2=O)cc1 , state its measured GI50.
**Result** 1.96 µM

**Query** Identify GI50 associated with the molecule Cc1nn2c(/C=C3\C(=O)Nc4ccccc43)c(C)nc2s1
**Result** 15.7 µM

**Query** Please list GI50 recorded for the molecule O=c1[nH]cnc2nc(-c3ccc(N(CCCl)CCCl)cc3)[nH]c12
**Result** 10.7 µM

**Query** Give the reported value of GI50 for this record: Cn1c(O)c(N=NC(N)=S)c2ccccc21
**Result** 33.5 µM

**Query** Please list GI50 recorded for the molecule O=C(O)c1ccc2cccnc2c1O
**Result** 1.37 µM

**Query** Return reported GI50. Input molecule: N#Cc1c(NCc2ccccc2)nc(NCc2ccccc2)c(C#N)c1-c1cccc(O)c1
**Result** 10.5 µM

**Query** Input C[C@H]1CCC/C=C/[C@@H]2C[C@H](O)C[C@H]2[C@H](O)[C@@H](SC2OC(CO)C(O)C(O)C2O)CC(=O)O1 (stereo not given in full) , output reported GI50.
**Result** 98.9 µM

**Query** Provide one value: measured GI50 of c1cc2ccc1CNCCN1CCNCc3ccc(cc3)Oc3ccc(cc3)CNCCN(CCNCc3ccc(cc3)O2)CCNCc2ccc(cc2)Oc2ccc(cc2)CNCC1
**Result** 1.51 µM

**Query** Supply measured GI50 of C=C1C[C@@H]2[C@H](CC[C@]3(C)C(=O)CC[C@@H]23)[C@@]2(C)C=CC(=O)C=C12 in your reply.
**Result** 35.2 µM

----------
Test system: LOX IMVI melanoma
TEST_NAME: NCI tumour cell line growth inhibition, 48 h
Please provide measured TGI for the entries that follow.
Your answer is read as µM, so omit the unit and give the number.

**Query** Recall and state the measured TGI for Cc1cc(O)c2c(c1)C(=O)C(c1c(C)cc3c(c1O)C(=O)C1OC1C3=O)=CC2=O (stereo not given) .
**Result** 5.87

**Query** Report TGI for CC1(C)CC2(C)OC(=N)C1(C#N)C2(C#N)C#N (stereo not given)
**Result** 3.09

**Query** Supply TGI value. Item: CC(=O)Nc1ccc(/C=C(\NC(=O)c2ccccc2)C(=O)NNS(=O)(=O)c2ccc(C)cc2)cc1
**Result** 38.2

**Query** Name the recorded TGI of the item O=C1C(=Cc2ccccc2[N+](=O)[O-])N=C(c2ccccc2)N1n1c(-c2ccccc2)nc2ccccc2c1=O in your answer.
**Result** 68.5

----------
Consider the following compounds; for each one, report its TGI.
Tested on: SNB-19 CNS
TEST_NAME: NCI tumour cell line growth inhibition, 48 h

**Query** Give TGI for Cc1cc(O)c2c(c1)C(=O)C(c1c(C)cc3c(c1O)C(=O)C1OC1C3=O)=CC2=O (stereo not drawn)
**Result** > 50.7 µM

**Query** Name the recorded TGI of the compound listed here: O=c1cccccc1NCCNc1cccccc1=O
**Result** > 100 µM

**Query** Entry CC(C)CC(NC(=O)C(COc1ccc([N+](=O)[O-])cc1)Cc1ccccc1)C(=O)Nc1ccccc1 (stereo not drawn) needs its TGI filled in; supply it.
**Result** 20.2 µM

**Query** Respond only with TGI recorded for O=C(c1ccccc1)c1ccccc1C(=O)c1ccccc1
**Result** > 100 µM

**Query** Kindly indicate its recorded TGI. Item: CCCNc1cccc(-n2ncc3c(N/N=C/c4ccncc4)ncnc32)c1
**Result** > 25 µM

**Query** Fill in TGI for record CN(C)c1ccc(/C=C2\C[C@H]3[C@@H]4CCc5cc(O)ccc5[C@H]4CC[C@]3(C)C2=O)cc1
**Result** > 100 µM

**Query** Hello, please tell me recorded TGI for this one: CC(=O)O[C@H]1C(=O)[C@@]2(C)C(C(OC(=O)c3ccccc3)[C@]3(O)CC(OC(=O)C(O)C(NC(=O)c4ccccc4)c4ccc(C)cc4)C(C)=C1C3(C)C)[C@]1(OC(C)=O)CO[C@@H]1C[C@@H]2O (stereo partly drawn)
**Result** 0.523 µM

**Query** Look up and report measured TGI for this entry: C/C=C/C(=O)[O-].N.N.N.N.N.[Co+3].[O-][Cl+3]([O-])([O-])[O-]
**Result** > 100 µM

**Query** Tell me measured TGI for O=C(NCCCCNCCCNC(=O)OCc1ccccc1)OCc1ccccc1 please.
**Result** > 100 µM

**Query** Give me measured TGI, please, for this compound: CCC1CCC2c3c([nH]c4ccccc34)C3C(=O)N(c4ccc(OC)cc4)C(=O)C3C2C1 (stereo not drawn)
**Result** 74.9 µM

**Query** Tell me measured TGI for COc1cc2c3c(c1OC)Oc1ccc(cc1)CC1c4c(cc(OC)c(OC)c4Oc4ccc(cc4)CC3N(C)CC2)CCN1C (stereo not drawn) please.
**Result** > 100 µM

**Query** Please report the measured TGI for CC(=O)O[C@H](C[C@H](C(C)C)N(C)C(=O)[C@@H](NC(=O)[C@H]1CCCCN1C)C(C)(C)C)c1nc(C(=O)N[C@@H](Cc2ccccc2)C[C@H](C)C(=O)O)cs1
**Result** > 25 µM

**Query** Output measured TGI for this item: N[C@H](C(=O)O)[C@@H](Cl)CC(=O)O
**Result** > 100 µM

**Query** Return TGI (reported value) for this compound: O=C(O)Cc1cc(=O)[nH]c2c1C(=O)CCC2
**Result** > 100 µM

**Query** Specify reported TGI for the compound shown: O=c1c(-c2ccc(O)cc2)coc2cc(O)cc(O)c12
**Result** > 100 µM

**Query** Give the reported TGI for this compound. NC1CCCCC1N.O=S(=O)([O-])CCCN1CCN(CCO)CC1.O=S(=O)([O-])CCCN1CCN(CCO)CC1.[Pt+4]
**Result** > 100 µM

**Query** Given CCOC(=O)N1C(=S)C(C(=O)OC)(C(=O)OC)N=C1C , respond with its TGI.
**Result** > 100 µM

**Query** Indicate the recorded TGI value for this compound: C=C1C(=O)O[C@H]2C/C(C=O)=C\[C@H]3O[C@H]3/C(COC(=O)C(C)C)=C/CC12 (stereo partly drawn)
**Result** 35.4 µM

----------
Tested on: K-562 leukemia
TEST_NAME: NCI tumour cell line growth inhibition, 48 h
Please respond with reported TGI for every item in the list.

**Query** Please indicate TGI recorded for c1ccc(-c2[nH]c(-c3ccccc3)c(-c3cnccn3)c2-c2cnccn2)cc1
**Result** > 100 µM

**Query** Tell us which TGI value is on record for CCOC(=O)NC(=O)c1cn(C2OC(CO)C(O)C2O)c(=O)[nH]c1=O (stereo not given)
**Result** > 100 µM

**Query** Kindly indicate its recorded TGI. Item: CNC(C)Cc1ccc(O)cc1 (stereo not given)
**Result** > 100 µM

**Query** Tell me its TGI given O=C(C=P(c1ccccc1)(c1ccccc1)c1ccccc1)c1ccc(-c2ccc(F)cc2F)cc1 as the entry.
**Result** 5.31 µM

**Query** Answer with reported TGI of C=C1CC(OC)(C(O)C(=O)N[C@H]2OCO[C@H]3C2O[C@H](C[C@H](O)COC)C(C)(C)C3OC)O[C@H](C)[C@@H]1C (stereo not given in full)
**Result** > 0.00772 µM

----------
Can you tell me TGI for the items I'm about to list?
Test system: SF-539 CNS
TEST_NAME: NCI tumour cell line growth inhibition, 48 h

**Query** Return reported TGI. Input compound: CC1=NN(C(=O)c2cc(Cl)cc([N+](=O)[O-])c2)C(=O)C1N=Nc1ccccc1C(=O)O (stereo not given)
**Result** > 100 µM

**Query** Quick one: give measured TGI for O=C1OC2C=CC1C1(CCOC1=O)C2 (stereo not given)
**Result** > 100 µM

**Query** Answer with reported TGI of c1ccc2c(c1)c1c3n2-c2cc(on2)C3CCC1 (stereo not given)
**Result** > 100 µM

**Query** Identify TGI associated with the compound COc1ccc(C2NC(=O)Nc3c2c(=O)oc2c3ccc3ccccc32)cc1 (stereo not given)
**Result** > 100 µM

**Query** In one line, give reported TGI of the entry C=C1C(=O)O[C@H]2C/C(C=O)=C\[C@H]3O[C@H]3/C(COC(=O)C(C)C)=C/CC12 (stereo not given in full) .
**Result** 47.3 µM
